# test name: Skin biopsy tissue concentration, four 0.7 mm horizontal sections, acetonitrile extraction (Example 1)
# Format: in vivo
# study conditions: human, section 1 (surface, 0-0.7 mm), topical, 8 % sirolimus in the formulation, subject D, section 1 (surface, 0-0.7 mm), 7 hours after application, 8% sirolimus in capric acid:benzyl alcohol 50:50, read-out: Sirolimus concentration, skin section 1
# Method: In parallel, skin biopsies were taken from the individuals after 7 hours, the biopsy samples were glued to a glass slide and serially sectioned horizontally into 4 layers each 0.7 mm thick and extracted with acetonitrile.
metric: concentration at 7 h

Q: Reported concentration at 7 h for CO[C@H]1C[C@@H]2CC[C@@H](C)[C@@](O)(O2)C(=O)C(=O)N2CCCC[C@H]2C(=O)O[C@H]([C@H](C)C[C@@H]2CC[C@@H](O)[C@H](OC)C2)CC(=O)[C@H](C)/C=C(\C)[C@@H](O)[C@@H](OC)C(=O)[C@H](C)C[C@H](C)/C=C/C=C/C=C/1C : what is it?
Ans: 216000 ng/g

Value source: patent US20050239724A1
